These entries and their values trace back to the supplement of paper PMC5998384.

Test system: HeLa Kyoto;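 also: HeLa Kyoto cells synchronized by double thymidine or nocodazole block, proteins quantified by TMT10plex mass spectrometry, three independent biological replicates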
method_summary: melting temperature (median over replicates), in situ; higher = more thermally stable
condition_context: cell cycle stage: mitosis
The following sequences are listed with their measured melting temperature values.
Report as a plain number; the unit °C is understood.

The examples below pair each entry with its known result.
MASSSGNDDDLTIPRAAINKMIKETLPNVRVANDARELVVNCCTEFIHLISSEANEICNKSEKKTISPEHVIQALESLGFGSYISEVKEVLQECKTVALKRRKASSRLENLGIPEEELLRQQQELFAKARQQQAELAQQEWLQMQQAAQQAQLAAASASASNQAGSSQDEEDDDDI [DR1] = 52.7
MGARASGGPLARAGLLLLLLLLLLLGLLAPGAQGARGRGGAEKNSYRRTVNTFSQSVSSLFGEDNVRAAQKFLARLTERFVLGVDMFVETLWKVWTELLDVLGLDVSNLSQYFSPASVSSSPARALLLVGVVLLAYWFLSLTLGFTFSVLHVVFGRFFWIVRVVLFSMSCVYILHKYEGEPENAVLPLCFVVAVYFMTGPMGFYWRSSPSGPSNPSNPSVEEKLEHLEKQVRLLNIRLNRVLESLDRSKDK [BRI3BP] = 53.1

Below: the item to evaluate.
Request - read-out melting temperature | tested on HeLa Kyoto | sequence MARCERLRGAALRDVLGRAQGVLFDCDGVLWNGERAVPGAPELLERLARAGKAALFVSNNSRRARPELALRFARLGFGGLRAEQLFSSALCAARLLRQRLPGPPDAPGAVFVLGGEGLRAELRAAGLRLAGDPSAGDGAAPRVRAVLVGYDEHFSFAKLREACAHLRDPECLLVATDRDPWHPLSDGSRTPGTGSLAAAVETASGRQALVVGKPSPYMFECITENFSIDPARTLMVGDRLETDILFGHRCGMTTVLTLTGVSRLEEAQAYLAAGQHDLVPHYYVESIADLTEGLED [PDXP] 57.5
